test: Potency index, ratio of EC50 for valyl colchicine to EC50 for compound against HEK293 cells after 48 hrs by MTS assay; format: cell-based; conditions: human, read-out: Ratio EC50
measured_metric: selectivity ratio at 48 h

Could you tell me which selectivity ratio at 48 h is on file for "COc1cc2c(c(OC)c1OC)-c1ccc(OC)c(=O)cc1[C@@H](NC(C)=O)CC2" ?
10
